target: Protein cereblon/Tyrosine-protein kinase ITK/TSK (Homo sapiens, UniProt Q08881+Q96SW2); assay: PROTAC activity at CRBN/ITK in human Jurkat cells assessed as induction of ITK degradation by Western blot analysis; assay type: cell-based; details: read-out: EC50
Sequence (Q08881 whole entry): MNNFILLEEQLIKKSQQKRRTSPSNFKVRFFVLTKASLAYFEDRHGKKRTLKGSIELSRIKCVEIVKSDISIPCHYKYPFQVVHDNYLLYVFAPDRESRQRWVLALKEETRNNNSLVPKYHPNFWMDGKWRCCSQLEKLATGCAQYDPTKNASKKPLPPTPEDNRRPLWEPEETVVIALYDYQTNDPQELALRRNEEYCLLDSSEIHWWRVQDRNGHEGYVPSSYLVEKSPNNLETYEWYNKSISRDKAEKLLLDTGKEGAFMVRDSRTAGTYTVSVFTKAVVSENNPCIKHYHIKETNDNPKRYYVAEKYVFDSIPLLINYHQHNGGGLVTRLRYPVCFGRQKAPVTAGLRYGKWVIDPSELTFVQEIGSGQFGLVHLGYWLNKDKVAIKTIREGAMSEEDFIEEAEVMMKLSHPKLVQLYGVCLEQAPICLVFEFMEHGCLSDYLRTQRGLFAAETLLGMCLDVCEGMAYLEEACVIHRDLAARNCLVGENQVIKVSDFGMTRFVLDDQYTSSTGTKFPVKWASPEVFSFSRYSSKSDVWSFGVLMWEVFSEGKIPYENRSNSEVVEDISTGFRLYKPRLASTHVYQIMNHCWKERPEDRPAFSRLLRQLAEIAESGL
Sequence (Q96SW2 whole entry): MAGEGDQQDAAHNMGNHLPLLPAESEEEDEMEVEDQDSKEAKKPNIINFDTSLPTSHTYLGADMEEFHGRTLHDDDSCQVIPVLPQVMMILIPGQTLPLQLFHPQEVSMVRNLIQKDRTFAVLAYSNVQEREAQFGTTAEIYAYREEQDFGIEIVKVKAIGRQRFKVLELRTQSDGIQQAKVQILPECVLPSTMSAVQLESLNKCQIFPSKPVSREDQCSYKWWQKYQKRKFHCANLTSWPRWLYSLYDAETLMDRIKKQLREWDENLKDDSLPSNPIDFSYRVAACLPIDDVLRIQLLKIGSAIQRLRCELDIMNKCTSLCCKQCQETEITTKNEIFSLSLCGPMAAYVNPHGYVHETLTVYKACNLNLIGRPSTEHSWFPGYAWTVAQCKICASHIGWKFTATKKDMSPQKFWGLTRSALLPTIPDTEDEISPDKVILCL
Measured Attribute: log10(EC50) (log10 of the value in µM)
// stored as log10 of EC50 expressed in µM

Check out these entries, answers already filled in.
{"Molecule": "CC1(C)CCc2c(C(=O)Nc3cnn([C@@H](CCN4CCN(CCC5CN(c6ccc7c(c6)C(=O)N(C6CCC(=O)NC6=O)C7=O)C5)CC4)c4ccccc4)c3)n[nH]c2C1 (stereo partly specified)", "Test Target": "Protein cereblon/Tyrosine-protein kinase ITK/TSK (Homo sapiens, UniProt Q08881+Q96SW2)", "log10(EC50)": -0.85}
{"Molecule": "CN(CCOCCOCC(=O)Nc1ccc2c(c1)C(=O)N(C1CCC(=O)NC1=O)C2=O)CC[C@@H](c1ccccc1)n1cc(NC(=O)c2n[nH]c3c2CCC(C)(C)C3)cn1 (stereo partly specified)", "Test Target": "Protein cereblon/Tyrosine-protein kinase ITK/TSK (Homo sapiens, UniProt Q08881+Q96SW2)", "log10(EC50)": -1.57}
{"Molecule": "CN(CCOCCC(=O)NC1=CCC2C(=O)N(C3CCC(=O)NC3=O)C(=O)C2=C1)CC[C@@H](c1ccccc1)n1cc(NC(=O)c2n[nH]c3c2CCC(C)(C)C3)cn1 (stereo partly specified)", "Test Target": "Protein cereblon/Tyrosine-protein kinase ITK/TSK (Homo sapiens, UniProt Q08881+Q96SW2)", "log10(EC50)": -1.81}

Sample CN(CCCCCCCCC(=O)Nc1ccc2c(c1)C(=O)N(C1CCC(=O)NC1=O)C2=O)CC[C@@H](c1ccccc1)n1cc(NC(=O)c2n[nH]c3c2CCC(C)(C)C3)cn1 (stereo partly specified) ; log10(EC50) observed: -2.26

Sample CN(CCOCCOCCOCCOCC(=O)Nc1cccc2c1C(=O)N(C1CCC(=O)NC1=O)C2=O)CC[C@@H](c1ccccc1)n1cc(NC(=O)c2n[nH]c3c2CCC(C)(C)C3)cn1 (stereo partly specified) ; log10(EC50) observed: -0.54

Sample CN(CCOCCOCCOCCNC(=O)CNc1cccc2c1C(=O)N(C1CCC(=O)NC1=O)C2=O)CC[C@@H](c1ccccc1)n1cc(NC(=O)c2n[nH]c3c2CCC(C)(C)C3)cn1 (stereo partly specified) ; log10(EC50) observed: -1.21

// data source = ChEMBL document CHEMBL5380833
